Target: CYP2B6 (Homo sapiens, UniProt P20813, K262R/Y226H)
Assay: NADPH-dependent 7-EFC O-deethylation enzyme inhibition assay
Type: biochemical
Conditions: Ki,app (Cheng-Prusoff from IC50), CYP2B6, presence of cyt b5
The entries below come with measured Ki values attached.
Value expressed in µM; do not type the unit.

>>> recordedmeasurement("Nc1ccc(Oc2ccccc2)cc1")
13.5

Report Ki for "Nc1ccc(Oc2cc(Cl)c(Cl)cc2Cl)cc1" tested on CYP2B6 (Homo sapiens, UniProt P20813, K262R/Y226H).
0.22

----------
Molecular target: CYP2B6 (Homo sapiens, UniProt P20813, K262R/Y226H)
Experiment: NADPH-dependent 7-EFC O-deethylation enzyme inhibition assay
Assay type: biochemical
Details: Ki,app (Cheng-Prusoff from IC50), CYP2B6, absence of cyt b5
quantityKind: Ki (µM)
State just the number; it will be interpreted in µM.

>>> recordedmeasurement("Nc1ccc(Oc2ccccc2)cc1")
7.5

From here, focus on the item given below.
Quick check: Ki of "Nc1ccc(Oc2cc(Cl)c(Cl)cc2Cl)cc1" ?
1.8
